- Test system: P2X7R-mediated IL-1β release
- assay_name: ATP-induced IL-1β release (ELISA) in differentiated THP-1 cells
- Format: cell-based, human
- condition_label: ATP-induced IL-1β release; LPS/IFN-differentiated human THP-1 cells; read-out: THP-1 cells IC50
Form field: IC50 (one value per entry).

| compound | IC50 [nM] |
| --- | --- |
| CCOc1ccc(Nc2ccc(/C(=C3C=C/C(=[N+](/CC)Cc4cccc(S(=O)(=O)[O-])c4)C=C/3C)c3ccc(N(CC)Cc4cccc(S(=O)(=O)O)c4)cc3C)cc2)cc1 [BBG, Brilliant Blue G, reference compound] | 1900 |
| N#Cc1cnn(-c2nnc(-c3ccccc3Cl)s2)c1N | 298 |
| Cc1cc(C)n(-c2nnc(-c3ccc(F)cc3)s2)n1 [Compound 11c] | 240 |
| CCOC(=O)c1cnn(-c2nnc(-c3ccccc3Cl)s2)c1N | 19 |
| N#Cc1cnn(-c2nnc(-c3ccc(F)cc3)s2)c1N | 279 |
| COc1ccc(CC(=O)NC(NC(=NC#N)Nc2cccc3ncccc23)C(C)(C)C)cc1OC (stereo not drawn) | 223 |

###

- target_system: P2X7R (Mus musculus)
- Construct: plated for 24 h before dye uptake assays, whole-cell patch clamp experiments, and IL-1β release assays; endogenous in cells
- Sequence (Q9Z1M0 whole entry): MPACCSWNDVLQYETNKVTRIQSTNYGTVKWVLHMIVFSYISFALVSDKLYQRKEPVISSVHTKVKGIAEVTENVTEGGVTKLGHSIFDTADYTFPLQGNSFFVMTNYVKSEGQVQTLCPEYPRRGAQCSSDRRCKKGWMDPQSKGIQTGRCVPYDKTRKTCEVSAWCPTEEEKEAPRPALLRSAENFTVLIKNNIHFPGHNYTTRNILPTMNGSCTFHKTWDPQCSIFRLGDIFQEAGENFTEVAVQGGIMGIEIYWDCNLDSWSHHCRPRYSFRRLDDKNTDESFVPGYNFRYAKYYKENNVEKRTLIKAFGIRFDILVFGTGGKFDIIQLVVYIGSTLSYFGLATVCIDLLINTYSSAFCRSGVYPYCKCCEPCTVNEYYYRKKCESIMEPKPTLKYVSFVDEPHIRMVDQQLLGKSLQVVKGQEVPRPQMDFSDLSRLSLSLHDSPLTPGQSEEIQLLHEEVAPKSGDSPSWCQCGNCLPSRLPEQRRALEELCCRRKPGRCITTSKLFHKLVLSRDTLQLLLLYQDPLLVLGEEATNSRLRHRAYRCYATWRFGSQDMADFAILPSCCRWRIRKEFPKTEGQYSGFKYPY
- assay_name: Dye uptake assay (propidium iodide) in mouse peritoneal macrophages
- condition_label: propidium uptake assay; mice peritoneal macrophages; mean ± SD
pIC50: −log10 of the molar value.
measured_quantity: pIC50

| compound | measured_value |
| --- | --- |
| Cc1cc(C)n(-c2nnc(-c3ccc(F)cc3)s2)n1 [Compound 11c] | 6.91 |
| N#Cc1cnn(-c2nnc(-c3ccccc3Cl)s2)c1N | 6.95 |
| COc1ccc(CC(=O)NC(NC(=NC#N)Nc2cccc3ncccc23)C(C)(C)C)cc1OC (stereo not drawn) | 6.97 |

Reference for the values: paper PMC6511888
